# METHOD_DESCRIPTION: Cytotoxicity against human Huh7.5 cells after 96 hrs by MTT assay
# Format: cell-based, Huh-7
CC50 at 96 h less than 40 µM is yes; CC50 at 96 h greater than or equal to 40 µM is no.

COc1ccc(CNc2ccc(-c3cnco3)c(OC)c2)cn1 = no
COc1ccc(CNc2ccc(-c3cnco3)c(OC)c2)cc1 = no
COc1cc(/N=C/c2ccc([N+](=O)[O-])o2)ccc1-c1cnco1 = yes
COc1ccc(O)c(CNc2ccc(-c3cnco3)c(OC)c2)c1 = no
COc1cc(NCc2c[nH]c3ccccc23)ccc1-c1cnco1 = no
COc1cc(NCc2ccc(Cl)s2)ccc1-c1cnco1 = no
COc1cc(/N=C/c2ccncc2)ccc1-c1cnco1 = no
COc1cc(NCc2ccc(OC)c(OC)c2OC)ccc1-c1cnco1 = yes
COc1cc(NCc2ccc(C)o2)ccc1-c1cnco1 = no
COc1cc(/N=C/c2ccc(F)cc2)ccc1-c1cnco1 = no

# input Given the entry `COc1cc(NCc2ccc(-c3ccccc3)s2)ccc1-c1cnco1` , would its reported CC50 at 96 h be below 40 µM?
# output yes

# input What would you report for `COc1cc(NCc2ccsc2)ccc1-c1cnco1` ?
# output no

# input What would you report for `COc1cc(NCc2cc(OC)c(OC)c(OC)c2)ccc1-c1cnco1` ?
# output yes

# input What would you report for `COc1cc(NCc2scnc2C)ccc1-c1cnco1` ?
# output no

# input What would you report for `COc1cc(NCc2ccncc2)ccc1-c1cnco1` ?
# output no

# input What would you report for `COc1cc(NCc2ccc(C(=O)O)s2)ccc1-c1cnco1` ?
# output no

# input What would you report for `COc1cc(NCc2cccc(C)n2)ccc1-c1cnco1` ?
# output no

# input What would you report for `COc1cc(NC/C=C/c2ccccc2)ccc1-c1cnco1` ?
# output no

# input What would you report for `COc1c(C)c2c(c(O)c1C/C=C(\C)CCC(=O)O)C(=O)OC2` ?
# output no

# input What would you report for `COc1cc(NCc2csc3ccccc23)ccc1-c1cnco1` ?
# output yes

# input What would you report for `COc1cc(NCc2cc3ccccc3s2)ccc1-c1cnco1` ?
# output yes

# input What would you report for `COc1ccc2[nH]cc(CNc3ccc(-c4cnco4)c(OC)c3)c2c1` ?
# output no

# input What would you report for `COc1ccc(-c2cnco2)cc1NCc1cccs1` ?
# output no

# input What would you report for `COc1cc(NCc2cccs2)ccc1-c1cnco1` ?
# output no

# input What would you report for `COc1cc(NCc2cncs2)ccc1-c1cnco1` ?
# output no

# input What would you report for `COc1cc(/N=C/c2cccs2)ccc1-c1cnco1` ?
# output no

###

# METHOD_DESCRIPTION: Selectivity index, ratio of CC50 for human Huh7.5 cells to IC50 for HCV expressing pFL-J6/JFH/JC1
# Assay type: functional, Huh-7
Binary classification by Ratio CC50/IC50, with 30 as an inclusive lower bound for MET; all other cases are NOT MET.

Take a look at these entries with their results.
CCc1ccc(CNc2ccc(-c3cnco3)c(OC)c2)s1 = NOT MET
COc1cc(/N=C/c2ccc(F)cc2)ccc1-c1cnco1 = MET
COc1cc(/N=C/c2ccc([N+](=O)[O-])o2)ccc1-c1cnco1 = NOT MET
COc1cc(NCc2cccnc2Cl)ccc1-c1cnco1 = NOT MET
COc1cc(NCc2cccs2)ccc1-c1cnco1 = MET

# input Entry `COc1cc(NCc2cc3ccccc3s2)ccc1-c1cnco1` : is its Ratio CC50/IC50 no less than 30?
# output MET

# input What would you report for `COc1cc(NCc2ccc(-c3ccccc3)s2)ccc1-c1cnco1` ?
# output NOT MET

# input What would you report for `COc1ccc(-c2cnco2)cc1NCc1cccs1` ?
# output MET

# input What would you report for `COc1ccc(-c2cnco2)cc1NCc1ccc(C)s1` ?
# output NOT MET

# input What would you report for `COc1cc(NCc2cccc(C)n2)ccc1-c1cnco1` ?
# output NOT MET

# input What would you report for `COc1cc(NCc2scnc2C)ccc1-c1cnco1` ?
# output NOT MET

# input What would you report for `COc1cc(NCc2cncs2)ccc1-c1cnco1` ?
# output MET

# input What would you report for `COc1cc(NCc2ccc(Cl)s2)ccc1-c1cnco1` ?
# output MET

# input What would you report for `COc1cc(NCc2ccc(Br)s2)ccc1-c1cnco1` ?
# output NOT MET

# input What would you report for `COc1cc(NCc2ccc(C)s2)ccc1-c1cnco1` ?
# output NOT MET

# input What would you report for `COc1cc(NCc2cc(OC)c(OC)c(OC)c2)ccc1-c1cnco1` ?
# output NOT MET

# input What would you report for `COc1cc(NCc2c[nH]c3ccccc23)ccc1-c1cnco1` ?
# output MET

# input What would you report for `COc1ccc2[nH]cc(CNc3ccc(-c4cnco4)c(OC)c3)c2c1` ?
# output MET

###

# METHOD_DESCRIPTION: Cytotoxicity against human Huh7.5 cells after 96 hrs by MTT assay
# Format: cell-based, Huh-7
PROPERTY_NAME: CC50 at 96 h (µM)
Quick reminder: number only, in µM, skip the unit.

CCc1ccc(CNc2ccc(-c3cnco3)c(OC)c2)s1 = 39.1
COc1cc(NCc2ccc(Br)s2)ccc1-c1cnco1 = 39.4
COc1cc(NCc2cccnc2Cl)ccc1-c1cnco1 = 40.5
CCC[C@H](NC(=O)[C@@H]1[C@H]2CCC[C@H]2CN1C(=O)[C@@H](NC(=O)[C@@H](NC(=O)c1cnccn1)C1CCCCC1)C(C)(C)C)C(=O)C(=O)NC1CC1 = 37.5
COc1cc(NCc2ccc(C)s2)ccc1-c1cnco1 = 34.4

# input May I ask what CC50 at 96 h has been recorded for `COc1ccc(-c2cnco2)cc1NCc1ccc(C)s1` ?
# output 52.9

# input What would you report for `COc1cc(NCc2ccco2)ccc1-c1cnco1` ?
# output 80

# input What would you report for `COc1ccccc1/C=C/CNc1ccc(-c2cnco2)c(OC)c1` ?
# output 29.2

###

# METHOD_DESCRIPTION: Selectivity index, ratio of CC50 for human Huh7.5 cells to IC50 for HCV expressing pFL-J6/JFH/JC1
# Assay type: functional, Huh-7
PROPERTY_NAME: Ratio CC50/IC50

// known answers, use as guide
COc1cc(/N=C/C=C/c2ccccc2)ccc1-c1cnco1 = >14.3
COc1cc(NCc2ccc(C(=O)O)s2)ccc1-c1cnco1 = >4.5

# input May I ask what Ratio CC50/IC50 has been recorded for `COc1ccc(O)c(CNc2ccc(-c3cnco3)c(OC)c2)c1` ?
# output >10.1

# input What would you report for `COc1cc(/N=C/c2cccs2)ccc1-c1cnco1` ?
# output >17.5

Attribution: ChEMBL document CHEMBL2434925
